// Binding specificity monomer to fibrils lookup, one value per entry
target: Abeta monomers (Homo sapiens, UniProt P05067); construct: incubate with FITC Abeta monomers, oligomers, fibrils and FITC for 1 hour at room temperature; assay: Peptide microarray, binding of FITC Abeta monomers to immobilized peptides; details: quotient binding signal to monomers / binding signal to fibrils
Sequence (P05067 672-713 limits assumed): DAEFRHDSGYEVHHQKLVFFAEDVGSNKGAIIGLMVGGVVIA
Where a SMILES comes first, the peptide text is derived from it. [ ]: non-standard residue; d: D form. dPhe(4-F) = N[C@H](Cc1ccc(F)cc1)C(=O)O

compound	recorded-value
CC[C@@H](C)[C@@H](NC(=O)[C@@H](CCCNC(=N)N)NC(=O)[C@@H](CCCCN)NC(=O)[C@H](N)CCCNC(=N)N)C(=O)N[C@H](CCCNC(=N)N)C(=O)N[C@H](CC(C)C)C(=O)N[C@@H](C(=O)N[C@H](Cc1ccc(O)cc1)C(=O)N[C@H](Cc1c[nH]cn1)C(=O)N[C@H](Cc1c[nH]c2ccccc12)C(=O)N[C@H](CC(N)=O)C(=O)N[C@H](CCCNC(=N)N)C(N)=O)C(C)C [ANK4, rkrirlvyhwnr] (H-[dR][dK][dR][dI][dR][dL][dV][dY][dH][dW][dN][dR]-NH2)	4.3
CC[C@@H](C)[C@@H](NC(=O)[C@@H](Cc1c[nH]cn1)NC(=O)[C@H](NC(=O)[C@@H](Cc1ccc(F)cc1)NC(=O)[C@@H](CC(C)C)NC(=O)[C@@H](CCCNC(=N)N)NC(=O)[C@H](NC(=O)[C@@H](CCCNC(=N)N)NC(=O)[C@@H](CCCCN)NC(=O)[C@H](N)CCCNC(=N)N)C(C)C)[C@H](C)O)C(=O)N[C@H](CCCCN)C(=O)N[C@H](CCCNC(=N)N)C(N)=O [ANK7, rkrvrl02thikr] (H-[dR][dK][dR][dV][dR][dL][dPhe(4-F)][dT][dH][dI][dK][dR]-NH2)	6.8
CC(C)C[C@@H](NC(=O)[C@@H](CCCNC(=N)N)NC(=O)[C@H](NC(=O)[C@@H](CCCNC(=N)N)NC(=O)[C@@H](CCCCN)NC(=O)[C@H](N)CCCNC(=N)N)C(C)C)C(=O)N[C@@H](C(=O)N[C@H](Cc1ccc(O)cc1)C(=O)N[C@H](Cc1c[nH]cn1)C(=O)N[C@H](CCCCN)C(=O)N[C@H](CCCCN)C(=O)N[C@H](CCCNC(=N)N)C(N)=O)C(C)C [ANK5, rkrvrlvyhkkr] (H-[dR][dK][dR][dV][dR][dL][dV][dY][dH][dK][dK][dR]-NH2)	2.2

[ask] Entry under review: CC[C@@H](C)[C@@H](NC(=O)[C@@H](CCCNC(=N)N)NC(=O)[C@@H](CCCCN)NC(=O)[C@H](N)CCCNC(=N)N)C(=O)N[C@H](CCCNC(=N)N)C(=O)N[C@H](CC(C)C)C(=O)N[C@@H](C(=O)N[C@@H](C(=O)N[C@H](CCCCN)C(=O)N[C@H](CCCCN)C(=O)N[C@H](CCCCN)C(=O)N[C@H](CCCNC(=N)N)C(N)=O)[C@H](C)O)C(C)C [ANK6, rkrirlvtkkkr] (H-[dR][dK][dR][dI][dR][dL][dV][dT][dK][dK][dK][dR]-NH2) . Reported Binding specificity monomer to fibrils?
[reply] 1.9
